tested on: NCI-H526 cells; assay: In vitro cell inhibition assay - NCI-H526 cell proliferation (CellTiter-Glo); assay type: cell-based; details: Homo sapiens, NCI-H526, 120 h, H526 small cell lung cancer cell proliferation, 5 days
Where a name gives a salt, the structure may show the parent alone.
MEASUREMENT_NAME: pIC50
pIC50 field: float, defined as -log10 of concentration (mol/L).

Query: Record request: pIC50 value, item CC(C)(O)COc1ccc(-c2cnc(N3CCC(NCc4cnc(/C=C/C(=O)NO)nc4)CC3)c(C#N)c2-c2ccc(C#N)c(F)c2)cc1O [Example 187, formate]
Response: 7.68

Query: Now this one: CC(C)(O)COc1ccc(-c2cnc(N3CCC(NCc4ccc(/C=C/C(=O)NO)cc4)CC3)c(C#N)c2-c2ccc(C#N)c(F)c2)cc1O [Example 143, formate]
Response: 7.74

Query: Now this one: CC(C)(O)COc1ccc(-c2cnc(N3CCC(NCc4ccc(CCC(=O)NO)cc4)CC3)c(C#N)c2-c2ccc(C#N)c(F)c2)cc1O [Example 188, formate]
Response: 7.09

Query: Now this one: COc1ccc(-c2cnc(N3CCC(NCc4ccc(/C=C/C(=O)NO)cc4)CC3)c(F)c2-c2ccc(C#N)c(F)c2)cc1O [Example 76, formate]
Response: 8.08

Query: Now this one: COc1cc(F)c(-c2cnc(N3CCC(NCc4ccc(/C=C/C(=O)NO)cc4)CC3)c(C#N)c2-c2ccc(C#N)c(F)c2)cc1O
Response: 7.64

Query: Now this one: COc1ccc(-c2cnc(N3CCC(NCc4ccc(/C=C/C(=O)NO)c(F)c4)CC3)c(C#N)c2-c2ccc(C#N)c(F)c2)cc1O [Example 200, formate]
Response: 8.39

---

target: pan-HDAC; test: In vitro enzyme inhibition assay - HDAC (HDAC-Glo I/II), pan-HDAC; type: biochemical
Where a name gives a salt, the structure may show the parent alone.
So basically: is IC50 under 40 nM? Then Met. Not under? Then Not met.

Consider the following illustrative entries.
Query: Hello, is IC50 of the following compound strictly smaller than 40 nM? N#Cc1ccc(-c2cc(OCc3ccc(/C=C/C(=O)NO)cc3)cc(N3CCC(N)CC3)n2)cc1F [Example 69, formate]
Response: Met

Query: Now this one: COc1ccc(-c2cnc(N3CCC(NCc4ccc(/C=C/C(=O)NO)cc4)CC3)c(CC#N)c2-c2ccc(C#N)c(F)c2)cc1O [Example 233, formate]
Response: Met

Query: Now this one: Cc1nc(N2CCC(N)CC2)c(C#N)c(-c2ccc(C#N)c(F)c2)c1-c1ccc(OCCCCCCC(=O)NO)c(O)c1 [Example 26, hydrochloride]
Response: Met

More entries:
Query: Hello, is IC50 of the following compound strictly smaller than 40 nM? C/C(=C\C(=O)NO)c1ccc(CNC2CCN(c3ncc(-c4ccc(OCC(C)(C)O)c(O)c4)c(-c4ccc(C#N)c(F)c4)c3C#N)CC2)cc1 [Example 212, hydrochloride]
Response: Met

Query: Now this one: COc1ccc(-c2cnc(N3CCC(NCCc4ccc(/C=C/C(=O)NO)cc4)CC3)c(C#N)c2-c2ccc(C#N)c(F)c2)cc1O [Example 45, hydrochloride]
Response: Met

Query: Now this one: N#Cc1ccc(-c2nc(N3CCC(N)CC3)n3ccnc3c2-c2ccc(NC(=O)CCCCCCC(=O)NO)c(O)c2)cc1F [Example 57]
Response: Not met

---

target: LSD1 (Homo sapiens (Human), UniProt O60341)
Counter-ions that a name gives are not always drawn.
So basically: is IC50 under 3 nM? Then Y. Not under? Then N.

Query: Hello, is IC50 of the following compound strictly smaller than 3 nM? COc1ccc(-c2cnc(N3CCC(NCc4ncc(/C=C/C(=O)NO)s4)CC3)c(C#N)c2-c2ccc(C#N)c(F)c2)cc1O [Example 151, hydrochloride]
Response: Y

Could you now consider this next compound?
Query: Hello, is IC50 of the following compound strictly smaller than 3 nM? N#Cc1ccc(-c2cc(C(=O)N3C4CCC3CC(N)C4)sc2-c2ccc(OCCCCCCC(=O)NO)c(O)c2)cc1F (centres unmarked) [Example 32, hydrochloride]
Response: Y

---

Each item that follows carries a reported IC50.
target: pan-HDAC; test: In vitro enzyme inhibition assay - HDAC (HDAC-Glo I/II), pan-HDAC; assay type: biochemical
Structures can show the parent of a compound that is named as a salt.
Numeric only. Scale: nM

Reference set (2 entries):
Query: Query IC50 on pan-HDAC for COc1ccc(-c2c(-c3ccc(C#N)c(F)c3)nc(N3CCC(NCCCCCCC(=O)NO)CC3)n3ccnc23)cc1O [Example 35, hydrochloride]
Response: 266

Query: Now this one: CS(=O)(=O)c1ccc(-c2c(OCCCCCCC(=O)NO)cc(N3CCC(N)CC3)nc2-c2ccc(C#N)c(F)c2)cc1 [Example 4, hydrochloride]
Response: 12

More entries:
Query: Query IC50 on pan-HDAC for N#Cc1ccc(-c2nc(N3CCC(N)CC3)cc(OCCCCCCC(=O)NO)c2-c2ccc(F)c(F)c2)cc1F [Example 6, hydrochloride]
Response: 134

---

biological target: pan-HDAC; assay: In vitro enzyme inhibition assay - HDAC (HDAC-Glo I/II), pan-HDAC; format: biochemical
Structures can show the parent of a compound that is named as a salt.
MEASUREMENT_NAME: IC50 (nM)
Numeric only. Scale: nM

Reference set (5 entries):
Query: Record request: IC50 value, item COc1ccc(-c2cnc(N3CCC(NCC4CCN(c5ccc(C(=O)NO)cc5)CC4)CC3)c(C#N)c2-c2ccc(C#N)c(F)c2)cc1O
Response: 404

Query: Now this one: N#Cc1ccc(-c2c(-c3ccc(Cl)c(O)c3)cnc(N3CCC(NCc4ccc(/C=C/C(=O)NO)cn4)CC3)c2C#N)cn1
Response: 4.05

Query: Now this one: CC(C)(O)COc1ccc(-c2cnc(N3CCC(NCc4ccc(/C=C/C(=O)NO)cn4)CC3)c(C#N)c2-c2ccc(C#N)c(F)c2)cc1O [Example 205, formate]
Response: 4.37

Query: Now this one: CC(C)(O)COc1ccc(-c2cnc(N3CCC(NCc4ccc(/C=C/C(=O)NO)cc4)CC3)c(C#N)c2-c2ccc(C#N)c(F)c2)cc1O [Example 143, formate]
Response: 1.7

Query: Now this one: COc1ccc(-c2cnc(N3CCC(NCc4ccc(/C=C/C(=O)NO)c(OC)c4)CC3)c(C#N)c2-c2ccc(C#N)nc2)cc1O [Example 257, formate]
Response: 0.59

API: the following record is the query input.
Query: Record request: IC50 value, item COc1ccc(-c2cnc(N3CCC(NCc4ccc(/C=C/C(=O)NO)cc4F)CC3)c(F)c2-c2ccc(C#N)nc2)cc1O [Example 269, hydrochloride]
Response: 0.93

---

molecular target: pan-HDAC; assay: In vitro enzyme inhibition assay - HDAC (HDAC-Glo I/II), pan-HDAC; format: biochemical
Structures can show the parent of a compound that is named as a salt.
Category scheme (IC50): low interval: < 3 nM; middle interval: ≥ 3 nM and < 20 nM; high interval: ≥ 20 nM

Query: // return the class label for CC(C)(O)COc1ccc(-c2cnc(N3CCC(C)(NCc4ccc(/C=C/C(=O)NO)cc4)CC3)c(C#N)c2-c2ccc(C#N)c(F)c2)cc1O [Example 215, formate]
Response: high interval

More entries:
Query: // return the class label for CC(C)(O)Cn1nnc2cc(-c3cnc(N4CCC(NCc5ccc(/C=C/C(=O)NO)cc5)CC4)c(C#N)c3-c3ccc(C#N)c(F)c3)c(F)c(F)c21
Response: high interval

Query: Now this one: COc1ccc(-c2ccc(N3CCC(NCc4ccc(/C=C/C(=O)NO)cc4)CC3)c(C#N)c2-c2ccc(C#N)nc2)cc1O
Response: low interval

Query: Now this one: Cc1ccc(-c2cnc(N3CCC(NCc4ccc(/C=C/C(=O)NO)cc4)CC3)c(C#N)c2-c2ccc(C#N)c(F)c2)cc1O [Example 102, formate]
Response: high interval

Query: Now this one: COc1ccc(-c2cnc(N3CCC(NC(=O)CCCCCCC(=O)NO)CC3)c(C#N)c2-c2ccc(C#N)c(F)c2)cc1O [Example 177, formate]
Response: high interval

Query: Now this one: COc1ccc(-c2cnc(N3CCC(NCCOc4ccc(C(=O)NO)cc4)CC3)c(C#N)c2-c2ccc(C#N)c(F)c2)cc1O [Example 164, formate]
Response: high interval

Query: Now this one: COc1ccc(-c2cnc(N3CCC(NCc4ccc(/C=C/C(=O)NO)cc4)CC3)c(CC#N)c2-c2ccc(C#N)nc2)cc1O [Example 261, formate]
Response: low interval

---

Each item that follows carries a reported IC50.
target: pan-HDAC; assay: In vitro enzyme inhibition assay - HDAC (HDAC-Glo I/II), pan-HDAC; type: biochemical
Structures can show the parent of a compound that is named as a salt.
Numeric only. Scale: nM

Reference set (10 entries):
Query: Record request: IC50 value, item COc1cc(-c2ccc(C(=O)N3CC[C@H](NCc4ccc(/C=C/C(=O)NO)cc4)C3)cc2-c2ccc(C#N)c(F)c2)ccc1O [Example 73]
Response: 186

Query: Now this one: N#Cc1ccc(-c2nc(N3CCC(N)CC3)cc(OCCCCCCC(=O)NO)c2-c2ccc(N)cc2)cc1F [Example 5, hydrochloride]
Response: 15

Query: Now this one: N#Cc1ccc(-c2nc(N3CCC(N)CC3)n3ccnc3c2-c2ccc(OCc3ccc(/C=C/C(=O)NO)cc3)c(O)c2)cc1F [Example 23, hydrochloride]
Response: 74.4

Query: Now this one: COc1ccc(-c2cnc(N3CCC(NCc4ccc(CCC(=O)NO)cc4Cl)CC3)c(C#N)c2-c2ccc(C#N)c(F)c2)cc1O [Example 222]
Response: 11.5

Query: Now this one: COc1ccc(-c2cnc(N3CCC(NCCCc4ncc(C(=O)NO)s4)CC3)c(C#N)c2-c2ccc(C#N)c(F)c2)cc1O [Example 125]
Response: 226

Query: Now this one: COc1ccc(-c2cnc(N3CCC(NCc4ccc(/C=C/C(=O)NO)cc4)CC3)c(C#N)c2-c2cnc(C#N)c(OC)c2)cc1O [Example 243, hydrochloride]
Response: 1.74

Query: Now this one: COc1ccc(-c2cnc(N3CCC(NCCNc4ncc(C(=O)NO)cn4)CC3)c(C#N)c2-c2ccc(C#N)c(F)c2)cc1O [Example 115]
Response: 20.6

Query: Now this one: COc1ccc(-c2cnc(N3CCC(NCc4ccc(/C=C/C(=O)NO)cc4)CC3)c(C#N)c2-c2ccc([N+](=O)[O-])nc2)cc1O [Example 248, formate]
Response: 0.62

Query: Now this one: COc1ccc(-c2c(C#N)cc(N3CCC(NCc4cnc(/C=C/C(=O)NO)nc4)CC3)nc2-c2ccc(C#N)c(F)c2)cc1O [Example 234, formate]
Response: 13.3

Query: Now this one: COc1ccc(-c2sc(C(=O)N3CCC(NCc4ccc(/C=C/C(=O)NO)cc4)CC3)cc2-c2ccc(C#N)c(F)c2)cc1O [Example 33, hydrochloride]
Response: 34.2

More entries:
Query: Record request: IC50 value, item CC(C)(O)Cn1nnc2cc(-c3cnc(N4CCC(NCc5ccc(/C=C/C(=O)NO)cc5)CC4)c(C#N)c3-c3ccc(C#N)c(F)c3)ccc21 [Example 197, formate]
Response: 7.48

Query: Now this one: COc1ccc(-c2cnc(N3CCC(NCc4ncc(/C=C/C(=O)NO)s4)CC3)c(C#N)c2-c2ccc(C#N)c(F)c2)cc1O [Example 151, hydrochloride]
Response: 27.4

Ref: patent US20250304549A1
